// IC50 at 48 h lookup, one value per entry
# Experiment: Cytotoxicity against human HFF cells assessed as cell growth inhibition measured after 48 hrs by MTT assay
# Assay type: toxicity, cell-based
Quick note: give the figure in µM, leave out the unit.

Compound | Value Unit | IC50 at 48 h
C[C@@H]1CC[C@H]2[C@@H](C)C(CC(COP(=O)(O)Oc3ccccc3)CC3O[C@@H]4O[C@]5(C)CC[C@@H]6[C@@H](C)CC[C@H]([C@@H]3C)[C@]46OO5)O[C@H]3O[C@@]4(C)CC[C@@H]1[C@]32OO4 (stereo not given in full) | µM | 56.5

INPUT: What does the data say about its IC50 at 48 h? Entry: C[C@@H]1CC[C@H]2[C@@H](C)C(CC(CC3O[C@@H]4O[C@]5(C)CC[C@@H]6[C@@H](C)CC[C@H]([C@@H]3C)[C@]46OO5)CS(=O)(=O)c3ccc(CO)cc3)O[C@H]3O[C@@]4(C)CC[C@@H]1[C@]32OO4 (stereo not given in full)
OUTPUT: 4.9

INPUT: What does the data say about its IC50 at 48 h? Entry: C[C@@H]1CC[C@H]2[C@@H](C)C(CC(COP(=O)(Oc3ccccc3)Oc3ccccc3)CC3O[C@@H]4O[C@]5(C)CC[C@@H]6[C@@H](C)CC[C@H]([C@@H]3C)[C@]46OO5)O[C@H]3O[C@@]4(C)CC[C@@H]1[C@]32OO4 (stereo not given in full)
OUTPUT: 55.8

INPUT: What does the data say about its IC50 at 48 h? Entry: C[C@@H]1CC[C@H]2[C@@H](C)C(CC(CO)CC3O[C@H]4O[C@@]5(C)CC[C@H]6[C@H](C)CC[C@@H]([C@H]3C)[C@@]46OO5)O[C@H]3O[C@@]4(C)CC[C@@H]1[C@]32OO4 (stereo not given in full)
OUTPUT: 48.1

INPUT: What does the data say about its IC50 at 48 h? Entry: C[C@@H]1CC[C@H]2[C@@H](C)C(CC(CC3O[C@@H]4O[C@]5(C)CC[C@@H]6[C@@H](C)CC[C@H]([C@@H]3C)[C@]46OO5)CS(=O)(=O)c3ccc(COC(=O)N(C)C)cc3)O[C@H]3O[C@@]4(C)CC[C@@H]1[C@]32OO4 (stereo not given in full)
OUTPUT: 57.5

###

// IC50 lookup, one value per entry
# Tested on: SK-MEL-2
# Experiment: Antiproliferative activity against human SK-MEL-2 cells assessed as reduction in cell viability incubated for 48 hrs by MTT assay
# Assay type: functional, cell-based
# Setup Conditions: SK-MEL-2, 48 h
Quick note: give the figure in nM, leave out the unit.

Compound | Value Unit | IC50
COc1cccc2c1C(=O)c1c(O)c3c(c(O)c1C2=O)C[C@@](O)(C(=O)CO)C[C@@H]3O[C@H]1C[C@H](N)[C@H](O)[C@H](C)O1 [DOXORUBICIN] | nM | 9

Would you kindly look at the next entry?
INPUT: What does the data say about its IC50? Entry: C[C@@H]1CC[C@H]2[C@@H](C)C(OCC(=O)COC3O[C@@H]4O[C@]5(C)CC[C@@H]6[C@@H](C)CC[C@H]([C@@H]3C)[C@]46OO5)O[C@H]3O[C@@]4(C)CC[C@@H]1[C@]32OO4 (some centres not stated)
OUTPUT: 560

###

# Test system: Plasmodium falciparum
# Experiment: Antimalarial activity against Plasmodium falciparum K1 assessed as inhibition of malarial growth
# Type: functional, organism-based
Readout Label: pIC50
Expect pIC50 as a plain number equal to -log10 of the molar concentration.

Example results:
Compound | Study Target | Recorded Value
COP(=O)(OCCCC1O[C@H]2O[C@@]3(C)CC[C@H]4[C@H](C)CC[C@@H]([C@H]1C)[C@@]24OO3)OCCC1O[C@H]2O[C@@]3(C)CC[C@H]4[C@H](C)CC[C@@H]([C@H]1C)[C@@]24OO3 (some centres not stated) | Plasmodium falciparum | 9.70
C[C@@H]1CC[C@H]2[C@@H](C)C(CCOCc3cccc(COCCC4O[C@H]5O[C@@]6(C)CC[C@H]7[C@H](C)CC[C@@H]([C@H]4C)[C@@]57OO6)c3)O[C@H]3O[C@@]4(C)CC[C@@H]1[C@]32OO4 (some centres not stated) | Plasmodium falciparum | 8.57

INPUT: What does the data say about its pIC50? Entry: `C[C@H]1[C@H](CCCCC[C@H]2O[C@H]3O[C@@]4(C)CC[C@H]5[C@H](C)CC[C@@H]([C@H]2C)[C@@]35OO4)O[C@H]2O[C@@]3(C)CC[C@H]4[C@H](C)CC[C@@H]1[C@@]24OO3`
OUTPUT: 9.04

INPUT: What does the data say about its pIC50? Entry: C[C@@H]1CC[C@H]2[C@@H](C)C(CCCOP(=O)(OCCC3O[C@H]4O[C@@]5(C)CC[C@H]6[C@H](C)CC[C@@H]([C@H]3C)[C@@]46OO5)Oc3ccccc3)O[C@H]3O[C@@]4(C)CC[C@@H]1[C@]32OO4 (some centres not stated)
OUTPUT: 9.30

INPUT: What does the data say about its pIC50? Entry: C[C@@H]1CC[C@H]2[C@@H](C)C(CCOCc3ccccc3COCCC3O[C@H]4O[C@@]5(C)CC[C@H]6[C@H](C)CC[C@@H]([C@H]3C)[C@@]46OO5)O[C@H]3O[C@@]4(C)CC[C@@H]1[C@]32OO4 (some centres not stated)
OUTPUT: 8.54

INPUT: What does the data say about its pIC50? Entry: `C[C@@H]1CC[C@H]2[C@@H](C)C(=O)O[C@@H]3O[C@@]4(C)CC[C@@H]1[C@]32OO4`
OUTPUT: 8.11

INPUT: What does the data say about its pIC50? Entry: C[C@@H]1CC[C@H]2[C@@H](C)C(CCOC(=O)c3ccccc3C(=O)OCCC3O[C@H]4O[C@@]5(C)CC[C@H]6[C@H](C)CC[C@@H]([C@H]3C)[C@@]46OO5)O[C@H]3O[C@@]4(C)CC[C@@H]1[C@]32OO4 (some centres not stated)
OUTPUT: 8.59
